system: Ditylenchus dipsaci; assay: proportion of mobile D. dipsaci (mixed stage) relative to DMSO control (fraction of DMSO control); higher = more viable, less nematicidal, active = 0.86 or less; extreme values may be limits of the assay; conditions: 60 µM; 5 days; temperature: 20 °C
Outcomes you can answer with include only these: Y for active, N for inactive

[
  {
    "compound": "CC(C)Oc1ccc(-c2nc(-c3ccccn3)no2)cc1",
    "qualitative label": "N"
  },
  {
    "compound": "Cc1cc(Cl)ccc1OCc1nc(-c2cccnc2)no1",
    "qualitative label": "N"
  }
]

Assay outcome for `Cc1cccc(-c2noc(-c3ccc(Cl)cc3)n2)c1` : what was it?
N

And for `COc1nc(C)ccc1-c1noc(-c2ccccc2C)n1` ?
N

And for `Cc1cc(OCc2nc(-c3ccccc3)no2)cc(C)c1Cl` ?
N

And for `Clc1ccc(-c2nc(-c3ccc4c(c3)OCO4)no2)cc1` ?
N

And for `CCOc1nc(-c2ccc(C)cc2)ccc1-c1noc(CC)n1` ?
N

And for `Cc1ccc(-c2nc(-c3ccncc3)no2)c(Cl)c1` ?
N

And for `Clc1cccc(-c2nc(-c3ccc4c(c3)OCO4)no2)c1` ?
N

====

# key: entry, value: proportion of mobile M. hapla J2
tested on: Meloidogyne hapla J2; experiment: proportion of mobile M. hapla J2 relative to DMSO control (fraction of DMSO control); higher = more viable, less nematicidal, active = 0.7 or less; conditions: 60 µM; 5 days; temperature: 20 °C

Examples with their reported proportion of mobile M. hapla J2 follow.
[
  {
    "compound": "Cc1cccc(OCc2nc(-c3ccncc3)no2)c1C",
    "reported value": "0.937 (inactive)"
  },
  {
    "compound": "Cc1ccccc1-c1noc(COc2ccccc2)n1",
    "reported value": "0.764 (inactive)"
  },
  {
    "compound": "Cc1ccc(-c2nnc(SCC(=O)Nc3ccc(F)cc3)o2)cc1",
    "reported value": "1.04 (inactive)"
  },
  {
    "compound": "Clc1ccc(-c2noc(COc3ccccc3Cl)n2)cc1",
    "reported value": "0.891 (inactive)"
  },
  {
    "compound": "Fc1ccc(OCc2nc(-c3ccc(Cl)cc3)no2)cc1",
    "reported value": "1.1 (inactive)"
  }
]

GET /values?readout=proportion of mobile M. hapla J2&item= `Brc1ccc(-c2noc(-c3ccco3)n2)o1`
0.801 (inactive)

And for `Cn1cc(C(=O)CSc2nnc(-c3ccccc3)o2)c2ccccc21` ?
1.01 (inactive)

And for Cc1ccc(SC(C)c2nc(-c3cccnc3)no2)cc1 (stereo not given) ?
0.874 (inactive)

And for `Clc1ccc(SCc2nc(-c3ccccc3)no2)cc1` ?
0.783 (inactive)

And for `c1ccc(-c2noc(CSc3nc4ccccc4[nH]3)n2)cc1` ?
1.05 (inactive)

And for `COc1cccc(-c2noc(COc3ccc(C(C)C)cc3)n2)c1` ?
0.968 (inactive)

And for `Cc1ccc(-c2nnc(SCC(=O)Nc3ccc(Br)c(C)c3C)o2)cc1` ?
1.03 (inactive)

And for `COc1ccc(-c2nc(-c3ccc(C(F)(F)F)cc3)no2)cc1` ?
0.966 (inactive)

And for `Cc1ccc(NC(=O)CSc2nnc(-c3ccccc3)o2)c(C)c1` ?
0.951 (inactive)

And for `COc1cccc(-c2noc(COc3ccc(C)cc3)n2)c1` ?
0.769 (inactive)

And for `Cc1cc(C)cc(-c2nc(-c3ccc(Cl)cc3)no2)c1` ?
0.938 (inactive)

And for `Cc1ccc(-c2nnc(SCc3ccccc3Cl)o2)cc1` ?
0.964 (inactive)

And for `CCn1c(SCc2nc(-c3cccs3)no2)nnc1-c1ccco1` ?
0.813 (inactive)

And for `Cc1cccc(-c2noc(-c3cc(Cl)ccc3Cl)n2)c1` ?
1.08 (inactive)

And for `COC(=O)CSc1nnc(-c2ccc(C(C)(C)C)cc2)o1` ?
0.976 (inactive)

And for `O=C(c1ccccc1-c1nc(-c2ccc(F)cc2)no1)N1CCCC1` ?
1.06 (inactive)
